System: GABA-A receptor
Experiment: 35S-TBPS binding assay on rat cerebral cortex cell membrane
Design: species or system Sprague-Dawley rat
Conditions: 2 nM 35S-TBPS, GABA added, read-out: 35S-TBPS bindng test, IC50 on inhibiting the TBPS binding activity
For each entry below, report its IC50 value.
Express the result in µM but write the number alone.

Record C[C@@]1(O)CC[C@@]2(F)[C@H](CC[C@H]3[C@@H]4CC[C@H](C(=O)CNc5cnoc5)[C@@]4(C)CC[C@@H]32)C1 . Reported IC50: 0.0344

Record C[C@@]1(O)CC[C@@]2(F)[C@H](CC[C@H]3[C@@H]4CC[C@H](C(=O)Cn5cc(C#N)cn5)[C@@]4(C)CC[C@@H]32)C1 . Reported IC50: 0.0118

Record C[C@@]1(O)CC[C@@]2(F)[C@H](CC[C@H]3[C@@H]4CC[C@H](C(=O)Cn5ccc(C(F)(F)F)n5)[C@@]4(C)CC[C@@H]32)C1 . Reported IC50: 0.0083

Record C[C@@]1(O)CC[C@]2(F)C3CC[C@]4(C)[C@@H](C(=O)Cn5cc(C6CC6)nn5)CC[C@H]4[C@@H]3CC[C@@H]2C1 (some centres unmarked) . Reported IC50: 0.0248

Record C[C@@]1(O)CC[C@@]2(F)[C@H](CC[C@H]3[C@@H]4CC[C@H](C(=O)CNc5cccc(F)c5)[C@@]4(C)CC[C@@H]32)C1 . Reported IC50: 0.0067

Record C[C@@]1(O)CC[C@@]2(F)[C@H](CC[C@H]3[C@@H]4CC[C@H](C(=O)COc5cc(C#N)ccc5F)[C@@]4(C)CC[C@@H]32)C1 . Reported IC50: 0.0093

Record C[C@@]1(O)CC[C@@]2(F)[C@H](CC[C@H]3[C@@H]4CC[C@H](C(=O)Cn5nc(C#N)cc5C#N)[C@@]4(C)CC[C@@H]32)C1 . Reported IC50: 0.0125

Record C[C@@]1(O)CC[C@@]2(F)[C@H](CC[C@H]3[C@@H]4CC[C@H](C(=O)Cn5ccc(C#N)n5)[C@@]4(C)CC[C@@H]32)C1 . Reported IC50: 0.0109

Record C[C@@]1(O)CC[C@@]2(F)[C@H](CC[C@H]3[C@@H]4CC[C@H](C(=O)CNc5ccc(F)cc5)[C@@]4(C)CC[C@@H]32)C1 . Reported IC50: 0.0309

Record C[C@@]1(O)CC[C@@]2(F)[C@H](CC[C@H]3[C@@H]4CC[C@H](C(=O)Cn5cc(C(F)(F)F)cn5)[C@@]4(C)CC[C@@H]32)C1 . Reported IC50: 0.0124

Record CCOC(=O)c1cnn(CC(=O)[C@H]2CC[C@H]3[C@@H]4CC[C@@H]5C[C@](C)(O)CC[C@]5(F)[C@H]4CC[C@]23C)c1 . Reported IC50: 0.0094
